Entries and their measured pEC50 follow.
ASSAY_TARGET: cynomolgus LIV-1 (cynomolgus, UniProt A0A2K5WH46 30-741)
Sequence (A0A2K5WH46 entry or part of it): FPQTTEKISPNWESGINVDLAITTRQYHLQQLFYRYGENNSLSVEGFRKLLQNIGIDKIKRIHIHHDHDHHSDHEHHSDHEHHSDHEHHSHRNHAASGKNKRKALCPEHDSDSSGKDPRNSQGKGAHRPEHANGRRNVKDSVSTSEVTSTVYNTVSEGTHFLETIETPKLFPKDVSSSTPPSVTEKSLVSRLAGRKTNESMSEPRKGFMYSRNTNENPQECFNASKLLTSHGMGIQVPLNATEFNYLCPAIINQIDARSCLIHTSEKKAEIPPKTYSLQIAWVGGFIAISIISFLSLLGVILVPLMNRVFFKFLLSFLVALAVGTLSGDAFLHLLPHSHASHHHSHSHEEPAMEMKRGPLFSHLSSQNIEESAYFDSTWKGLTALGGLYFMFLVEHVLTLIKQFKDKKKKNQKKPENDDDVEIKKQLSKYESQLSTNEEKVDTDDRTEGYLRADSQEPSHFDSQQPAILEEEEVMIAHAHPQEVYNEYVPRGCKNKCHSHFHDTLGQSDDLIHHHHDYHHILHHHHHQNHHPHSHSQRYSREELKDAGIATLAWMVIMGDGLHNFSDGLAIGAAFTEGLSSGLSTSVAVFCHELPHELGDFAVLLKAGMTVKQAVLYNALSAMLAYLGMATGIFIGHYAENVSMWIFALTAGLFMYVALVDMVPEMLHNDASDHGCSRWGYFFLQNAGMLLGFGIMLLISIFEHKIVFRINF
PROTOCOL_DESCRIPTION: FACS, HEK293/Cyno_LIV-1 cells
pEC50: −log10 of the molar value.

BINDER	pEC50
290F10G10 (antibody, V domains shown, Tested as chimeric antibody) VH: IQLQQSGAELARPGASVKLSCKASGYTFTSYWIHWVKERPGQGLEWIGTIYPGDGDTRSTQKFKDKATVTAEKSSSTVYMQLSSLASEDSAVYYCTRSLIHDDYDKYYFDYWGQGTTLTVSS VL: DIQMTQSPSSLSASLGGKVTITCKARQDINKYIAWYQHKPGKGPRLLIHYTSILQPGIPSRFSGSGSGRDYSFSISNLEPEDIATYYCLQYDYFFTFGSGTKLEIK	9.59
124H4D11.p2.z4 (antibody, V domains shown) VH: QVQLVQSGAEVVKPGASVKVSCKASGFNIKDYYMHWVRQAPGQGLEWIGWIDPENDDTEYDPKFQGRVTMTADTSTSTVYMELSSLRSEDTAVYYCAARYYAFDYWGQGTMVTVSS VL: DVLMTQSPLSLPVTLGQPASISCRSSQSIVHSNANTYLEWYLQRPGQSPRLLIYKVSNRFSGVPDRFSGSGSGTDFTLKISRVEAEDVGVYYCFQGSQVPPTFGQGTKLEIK	10.05
5D6B10.Z7 (antibody, V domains shown) VH: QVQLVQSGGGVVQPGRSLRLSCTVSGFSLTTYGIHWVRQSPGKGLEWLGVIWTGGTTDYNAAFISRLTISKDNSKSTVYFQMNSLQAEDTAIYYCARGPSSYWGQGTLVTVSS VL: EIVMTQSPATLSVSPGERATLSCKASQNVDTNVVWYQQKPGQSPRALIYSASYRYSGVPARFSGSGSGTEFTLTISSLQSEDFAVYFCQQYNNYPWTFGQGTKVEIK	9.26
